Values were extracted from ChEMBL document CHEMBL1158509.

- STUDY_SYSTEM: Prostaglandin D2 receptor 2 (Homo sapiens)
- EXPERIMENT_SUMMARY: Antagonist activity at human CRTH2 receptor expressed in […] cells assessed as inhibition of beta arrestin translocation by bioluminescence resonance energy transfer assay
- Assay type: functional, cell-based
Exercise: for every item that follows, state its recorded IC50.

Known IC50 results, listed for orientation:
Suppose we examine the compound O=C(O)Cc1sc(C2(c3ccccc3)CCNCC2)nc1-c1ccc(Cl)cc1 ; what IC50 value has been reported?
> 100000 nM

Reported IC50, compound O=C(O)Cc1sc(C(c2ccccc2)c2ccccc2)nc1-c1ccc(C(F)(F)F)cc1 : ____
> 100000 nM

Fill blank: measured IC50 of the compound O=C(O)Cc1sc(C(c2ccccc2)c2ccc(Cl)cc2)nc1-c1ccc(Cl)cc1 (centres undefined) is ____.
75 nM

Dear colleague, could you please provide IC50 for the compounds listed below?
1. O=C(O)Cc1sc(C(c2ccccc2)c2ccccc2)nc1-c1ccccc1
2. O=C(O)Cc1sc(C(c2ccc(F)cc2)c2ccc(F)cc2)nc1-c1cn[nH]c1
3. O=C(O)Cc1sc(C(c2ccc(F)cc2)c2ccc(F)cc2)nc1-c1ccoc1
4. O=C(O)Cc1sc(C(c2ccc(F)cc2)c2ccc(F)cc2)nc1-c1ccnc(F)c1
5. O=C(O)Cc1sc(C(c2ccc(F)cc2)c2ccc(F)cc2)nc1-c1ccn[nH]1
6. O=C(O)Cc1sc(CS(=O)(=O)c2ccc(Cl)cc2)nc1-c1ccc(Cl)cc1
7. COc1cc(-c2nc(C(c3ccc(F)cc3)c3ccc(F)cc3)sc2CC(=O)O)ccn1
8. Nc1nc(-c2ccc(Cl)cc2)c(CC(=O)O)s1

1: 370 nM; 2: 220 nM; 3: 130 nM; 4: 4.7 nM; 5: 3300 nM; 6: 730 nM; 7: 380 nM; 8: > 100000 nM

---

- STUDY_SYSTEM: Prostaglandin D2 receptor 2 (Homo sapiens, UniProt Q9Y5Y4)
- Sequence (Q9Y5Y4 whole entry): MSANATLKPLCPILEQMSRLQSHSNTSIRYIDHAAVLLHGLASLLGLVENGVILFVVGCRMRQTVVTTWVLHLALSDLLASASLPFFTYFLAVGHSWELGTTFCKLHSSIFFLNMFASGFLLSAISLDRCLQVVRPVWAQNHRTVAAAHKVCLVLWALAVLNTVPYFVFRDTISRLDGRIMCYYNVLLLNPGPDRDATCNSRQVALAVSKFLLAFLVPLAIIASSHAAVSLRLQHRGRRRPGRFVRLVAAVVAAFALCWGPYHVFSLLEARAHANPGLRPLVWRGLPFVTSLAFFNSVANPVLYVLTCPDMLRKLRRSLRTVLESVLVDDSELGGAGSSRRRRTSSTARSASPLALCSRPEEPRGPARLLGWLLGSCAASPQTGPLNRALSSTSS
- EXPERIMENT_SUMMARY: Displacement of[3H]PGD2 from human CRTH2 receptor expressed in […] cells
- Format: cell-based
PARAMETER: pIC50
Give bare numbers, as −log10 of the molar value.

Some solved entries appear below for comparison.
Can you share its pIC50? I mean this molecule: O=C(O)Cc1sc(C(c2ccccc2)c2ccccc2)nc1-c1ccc(C(F)(F)F)cc1
5.96

# pIC50 lookup, item O=C(O)Cc1sc(Cc2cccc3ccccc23)nc1-c1ccc(Cl)cc1
7.39

Could you tell me which pIC50 is on file for O=C(O)Cc1sc(C(c2ccccc2)c2ccc(O)cc2)nc1-c1ccc(F)cc1 (stereo not given) ?
8.47

# input molecule: O=C(O)Cc1sc(C(c2ccc(F)cc2)c2ccc(F)cc2)nc1-c1ccco1 ; wanted: its pIC50
7.74

Which pIC50 reading was recorded for the molecule Cc1cc(-c2nc(C(c3ccc(F)cc3)c3ccc(F)cc3)sc2CC(=O)O)cnc1N ?
6.06

For the molecule O=C(O)Cc1sc(C2(c3ccccc3)CCNCC2)nc1-c1ccc(Cl)cc1 , what pIC50 is on record?
5.54

For O=C(O)Cc1sc(C(c2ccccc2)c2ccccc2)nc1-c1ccc(Cl)cc1 , what is its reported pIC50?
7.85

Need pIC50 of CC(=O)N1CCC(c2ccccc2)(c2nc(-c3ccc(Cl)cc3)c(CC(=O)O)s2)CC1 , thanks.
7.28

List the reported pIC50 of each molecule below.
1. COc1cc(-c2nc(C(c3ccc(F)cc3)c3ccc(F)cc3)sc2CC(=O)O)ccn1
2. O=C(O)Cc1sc(C(c2ccccc2)c2ccccn2)nc1-c1ccc(Cl)cc1 (stereo not given)

1. 7.54
2. 6.09
